# experimental_system: T1, human IL-36R (on cells) (human, UniProt Q9HB29 20-575)
# T1 sequence (looked up): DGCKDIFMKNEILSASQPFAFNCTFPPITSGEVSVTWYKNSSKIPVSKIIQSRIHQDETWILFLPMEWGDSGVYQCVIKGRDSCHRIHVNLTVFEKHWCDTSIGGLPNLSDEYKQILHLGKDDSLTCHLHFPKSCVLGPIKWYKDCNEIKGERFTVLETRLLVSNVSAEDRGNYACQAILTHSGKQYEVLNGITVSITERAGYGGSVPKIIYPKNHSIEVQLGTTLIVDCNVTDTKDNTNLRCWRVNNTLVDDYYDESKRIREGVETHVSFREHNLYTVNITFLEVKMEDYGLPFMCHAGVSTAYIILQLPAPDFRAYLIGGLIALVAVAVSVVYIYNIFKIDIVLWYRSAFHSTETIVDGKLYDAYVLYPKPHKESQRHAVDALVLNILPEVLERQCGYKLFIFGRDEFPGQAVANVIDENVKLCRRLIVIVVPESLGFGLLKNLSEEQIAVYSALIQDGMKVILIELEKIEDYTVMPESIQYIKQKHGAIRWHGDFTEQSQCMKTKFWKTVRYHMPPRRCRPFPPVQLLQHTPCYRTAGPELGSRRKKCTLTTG
# assay_explanation: cell-based or functional assay
quantity: EC50 (nM), IL-8 secretion by primary human keratinocytes, 1 ng/ml human IL-36β
Report only the number, with the unit nM understood.

Item Hzd 5D3 (APE6194) (antibody, V domains shown, also called 5D3 Humanized) VH: QVQLVQSGAEVKKPGASVKVSCKASGYTFTNYWMNWVRQAPRQGLEWMGMFHPYGDVTRLNQKFKDRVTMTRDTSTSTVYMELSSLRSEDTAVYYCARTTSMIIGGFAYWGQGTLVTVSS VL: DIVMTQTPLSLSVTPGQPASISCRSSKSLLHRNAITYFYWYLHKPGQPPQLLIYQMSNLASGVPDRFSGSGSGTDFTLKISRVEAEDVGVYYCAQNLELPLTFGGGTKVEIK has what recorded EC50 (nM), IL-8 secretion by primary human keratinocytes, 1 ng/ml human IL-36β?
0.164
